System: SF-295 CNS
experiment_description: NCI-60 one-dose screen, 48 h (100 = growth as untreated, 0 = no growth, -100 = all killed)
condition_context: 10 µM unless noted
Compounds without any hit were thinned out: in the full panel of roughly 83,000, 20% have a hit.
Assign 1 whenever growth does not fall below 40%; assign 0 whenever it does.

molecule=Cc1cccc(-c2nc(Nc3ccc(C)c(S(N)(=O)=O)c3)c3ccccc3n2)c1 class_name=0
molecule="COc1c(F)ccc(C(=O)Nc2ccc3nc(NC(=O)C4CCCN(S(=O)(=O)c5ccc(Cl)cc5)C4)sc3c2)c1F (stereo unspecified)" class_name=1
molecule=COc1cc(OC)c2c3nc4cc(C)c(C)cc4nc3n(CCN(C)C)c2c1 class_name=1
molecule=O=c1[nH]c(=O)c2c(-c3cc4ccccc4oc3=O)ccnc2[nH]1 class_name=0
molecule="CN(C)c1nc(NCCNS(=O)(=O)c2ccc(C3=Nc4c(N)nc(N)nc4NC(c4ccc(Cl)cc4)C3)cc2)nc(Nc2ccc(F)cc2)n1 (stereo unspecified)" class_name=1
molecule=COc1cc2oc(-c3cccc(NC(=O)[C@H](CC(N)=O)NC(=O)OC(C)(C)C)c3)cc(=O)c2c(OC)c1OC class_name=1
molecule="C#CCOc1cc(N(CC)CC)ccc1C(C(=O)NC(C)(C)C)N(C(=O)C1CCc2cc(F)ccc2O1)c1ccccc1Br (stereo unspecified)" class_name=1
molecule=Nc1cccc(SCc2cc3ccccc3[nH]c2=O)c1 class_name=0
molecule=CC(=O)NNc1ccc2nnc(-c3ccccc3)n2n1 class_name=1
molecule="CC1=C(C(=O)OCc2ccccc2)C(c2ccc(-n3cncn3)cc2)n2c(nc3ccccc32)N1 (stereo unspecified)" class_name=0
molecule=N#Cc1c(-c2cccnc2)cc(-c2ccc3ccccc3c2)[nH]c1=O class_name=1
molecule=COc1ccc2c(c1)c(-c1cc3nc(-c4cn(C)c5ncc(Br)cc45)cc(N)n3n1)cn2C class_name=0
molecule=S=C(NCCc1ccccc1)Nc1ccc(OCc2nc3ccccc3[nH]2)cc1 class_name=1
molecule="CC1CN(c2oc(-c3ccc([N+](=O)[O-])cc3)nc2C#N)CC(C)O1 (stereo unspecified)" class_name=1
molecule="CN(C)CCOc1ccc(C(=O)C2[C@H](c3ccc(Cl)cc3)[C@@H](c3ccccc3)NC23C(=O)Nc2ccccc23)cc1 (stereo partly specified)" class_name=1
molecule=CCOC(=O)c1ccc(Nc2nc(NN)nc(-c3ccc(OC)cc3)c2C#N)cc1 class_name=1
molecule=CCCCc1c(Nn2cnnn2)no[n+]1[O-] class_name=1
molecule=COc1ccc2[nH]c(O)c(N=NC(=O)COc3ccc(NC(=O)Nc4ccccc4)cc3)c2c1 class_name=1
molecule=Cn1cc(-c2cc3nc(-c4cn(C)c5ncccc45)cc(N)n3n2)c2ccccc21 class_name=0
molecule=CCN(CC)c1ccc(/C=N/Nc2nc(-c3ccc(C)cc3)cs2)c(O)c1 class_name=1
molecule=C/C(=N\N=C1/C(=O)Nc2ccc(Cl)cc21)c1ccc2c(c1)Nc1ccccc1S2 class_name=0
molecule="COc1c(F)ccc(C(=O)Nc2ccc3nc(NC(=O)C4CCCN(S(=O)(=O)C5CC5)C4)sc3c2)c1F (stereo unspecified)" class_name=0
molecule=OCNc1ccc(-n2cnc3cc(-c4ccc(O)cc4)ccc32)cc1C(F)(F)F class_name=0
molecule=Cn1cc(-c2cc3nc(-c4cn(C)c5ncc(Br)cc45)cc(N)n3n2)c2ccccc21 class_name=0
molecule="COCOc1cc2c(=O)c(C)c(C(=O)N[C@@H](Cc3ccccc3)C(O)C(=O)NCc3ccccc3)oc2cc1OC (stereo partly specified)" class_name=1
molecule=O=C(COc1ccc(NC(=O)Nc2ccc(Cl)c(Cl)c2)cc1)N=Nc1c(O)[nH]c2ccc(Cl)cc12 class_name=0
molecule=O=c1oc2ccccc2cc1-c1csc(N=Nc2c(O)[nH]c3ccc(Cl)cc23)n1 class_name=1
molecule=O=C1c2c(c3c4cc(F)ccc4oc3c3[nH]c4ccc(Br)cc4c23)C(=O)N1O class_name=0
molecule=COc1cccc(COc2ccc(NC(=O)Nc3ccc(Cl)c(C(F)(F)F)c3)cc2)c1 class_name=0
molecule=CCCSc1nc(Nc2ccc(S(N)(=O)=O)cc2)c(C#N)c(-c2ccc(Cl)cc2)n1 class_name=0
molecule="CC(=O)OC[C@@]1(C)C2CC[C@]3(C)C(CC=C4C5CC(C)(C)CC[C@]5(C(=O)Nc5cccc(C)c5)CC[C@]43C)[C@@]2(C)C[C@@H](OC(C)=O)[C@@H]1OC(C)=O (stereo partly specified)" class_name=0
molecule="Cc1sc2c(c1C)C(c1ccc(Cl)cc1)=N[C@@H](CC(=O)NCCCCCNC(=O)COc1ccc(C3CCC(=O)NC3=O)cc1)c1nnc(C)n1-2 (stereo partly specified)" class_name=0
molecule=CCCCSc1nc(Nc2ccc(S(N)(=O)=O)cc2)c(C#N)c(-c2ccc(Cl)cc2)n1 class_name=0
molecule=Cc1ccc(C(SCCNCc2cc(N(C)C)ccn2)(c2ccccc2)c2ccccc2)cc1 class_name=0
molecule=Nc1n[nH]c2cccc(C#Cc3cccc(NC(=O)c4cccc(Cl)c4)c3)c12 class_name=0

The origin of these recorded values is PubChem BioAssay (NCI).
